Tested on: Digitaria sanguinalis (DIGSA)
Assay: Adjuvant efficacy with mesotrione, glasshouse spray test
Assay type: in vivo
Conditions: mesotrione SC, mean over 30 and 60 g/ha and 3 replicates; adjuvant 0.2% v/v (none in No Adjuvant rows); % leaf area killed, 21 days after application; Tests 1-4 separate runs
The following molecules are listed with their measured Mean % Herbicidal Activity DIGSA values.

MOLECULE	Mean % Herbicidal Activity DIGSA (%)
CCCCCCCCCOc1cc(OCCOCCOCCOCCOCCOCCOCCOC)ncn1 [Adjuvant 4]	83
CCCCCCOc1cc(OCCOCCOC)ncn1 [Adjuvant 1]	81
CCCCCCCCC=CCCCCCCCCOc1cc(OCCOCCOC)ncn1 [Adjuvant 9]	82

---

Quick list: Mean % Herbicidal Activity SETVI per entry.
Tested on: Setaria viridis (SETVI)
Assay: Adjuvant efficacy with pinoxaden, glasshouse spray test
Format: in vivo
Settings: pinoxaden EC, mean over 7.5 and 15 g/ha and 3 replicates; adjuvant 0.2% v/v (none in No Adjuvant rows); % leaf area killed, 21 days after application; Tests 1-4 separate runs

TEST SMILES	DISPLAY UNIT	Mean % Herbicidal Activity SETVI
CCCCCCOc1cc(OCCOCCOCCOCCOCCOCCOCCOCCOCCOCCOCCOCCOCCOCCOCCOCCOCCOCCOCCOCCOC)ncn1	%	88
CCCCCCCCC=CCCCCCCCCOc1cc(OCCOCCOC)ncn1	%	91
CCCCCCOc1cc(OCCOCCOC)ncn1	%	82
CCCCCCCCC=CCCCCCCCCOc1cc(OCCOCCOCCOCCOCCOCCOCCOCCOCCOCCOC)ncn1	%	89
CCCCCCCCCOc1cc(OCCOCCOCCOCCOCCOCCOCCOC)ncn1	%	82

---

Overview of recorded Mean % Herbicidal Activity IPOHE for various compounds
Tested on: Ipomea hederacea (IPOHE)
Test: Adjuvant efficacy with fomesafen, glasshouse spray test
Format: in vivo
Details: fomesafen sodium salt SL, mean over 100 and 200 g/ha and 3 replicates; adjuvant 0.2% v/v (none in No Adjuvant rows); % leaf area killed, 21 days after application; Tests 1-4 separate runs
Description: The efficacy of adjuvants 1-12 as adjuvants for the herbicide fomesafen (as the sodium salt) were tested in a glasshouse against four weed species, sown into standard soil in pots and cultivated under controlled conditions in a glasshouse (at 24/18° C. day/night; 16 hours light, 65% humidity). […] The efficacy of the herbicide was assessed visually and expressed as a percentage of the leaf area killed. Samples were assessed at a time period of 21 days following application. […]
MEASURED PROPERTY: Mean % Herbicidal Activity IPOHE (%)

TEST SMILES	MEASURED PROPERTY	DISPLAY UNIT	ENDPOINT RESULT
CCCCCCCCC=CCCCCCCCCOc1cc(OCCOCCOC)ncn1	Mean % Herbicidal Activity IPOHE	%	88
CCCCCCOc1cc(OCCOCCOC)ncn1	Mean % Herbicidal Activity IPOHE	%	91
CCCCCCOc1cc(OCCOCCOCCOCCOCCOCCOCCOCCOCCOCCOCCOCCOCCOCCOCCOCCOCCOCCOCCOCCOC)ncn1	Mean % Herbicidal Activity IPOHE	%	88

---

Quick reference: Mean % Herbicidal Activity POLCO of the listed items.
Tested on: Polygonum convolvulus (POLCO)
Experiment: Adjuvant efficacy with mesotrione, glasshouse spray test
Type: in vivo
Conditions: mesotrione SC, mean over 30 and 60 g/ha and 3 replicates; adjuvant 0.2% v/v (none in No Adjuvant rows); % leaf area killed, 21 days after application; Tests 1-4 separate runs
MEASURED PROPERTY: Mean % Herbicidal Activity POLCO (%)

TEST SMILES	MEASURED PROPERTY	ENDPOINT RESULT
CCCCCCOc1cc(OCCOCCOC)ncn1	Mean % Herbicidal Activity POLCO	81
CCCCCCCCCCCCOc1cc(OCCOCCOCCOCCOCCOCCOCCOCCOCCOCCOC)ncn1	Mean % Herbicidal Activity POLCO	70
CCCCCCCCCCCCOc1cc(OCCOCCOCCOCCOCCOCCOCCOC)ncn1	Mean % Herbicidal Activity POLCO	84
CCCCCCOc1cc(OCCOCCOCCOCCOCCOCCOCCOCCOCCOCCOC)ncn1	Mean % Herbicidal Activity POLCO	94
